These measurements were taken from ChEMBL document CHEMBL5154682.

- assay procedure: AUClast in BALB/c mouse brain at 10 mg/kg, po measured for 0.25 to 24 hrs by LC-MS/MS analysis
- Type: ADME, organism-based
- Parameters: dose 10 mg/kg, time 0.25-24 hrs, route po
readout label: AUC(0-t) (ng·h/mL)
Give bare numbers, in ng·h/mL.

Which AUC(0-t) value is on record for Clc1ccc(Oc2ccc(Nc3ncnc4[nH]ccc34)cc2)cc1 ?
49200

---

- assay procedure: Permeability of the compound at pH 7.4 PBS/EtOH buffer (70:30) by PAMPA-BBB assay
readout label: permeability

Nc1nc(Nc2ccc(Oc3ccc(C(F)(F)F)cc3)cc2)c2cc[nH]c2n1 = Permeable
FC(F)(F)Oc1ccc(Nc2ncnc3[nH]ccc23)cc1 = Impermeable
Nc1nc(Nc2ccc(Oc3ccc(Cl)cc3)cc2)c2cc[nH]c2n1 = Permeable
c1ccc(Nc2ncnc3[nH]ccc23)cc1 = Permeable

Field: permeability. Fill in for each record below.
1. Cc1ccc(Cn2cc(COc3ccc(Nc4ncnc5[nH]ccc45)cc3)nn2)cc1
2. CN(C)CCCN1c2ccccc2Sc2ccccc21 [PROMAZINE]
3. Cn1c(=O)c2c(ncn2C)n(C)c1=O [CAFFEINE]

1. Impermeable
2. Permeable
3. Permeable

Each molecule below has a recorded value; state its permeability.
1. Nc1nc(Nc2ccc(Oc3cccc(C(F)(F)F)c3)cc2)c2cc[nH]c2n1
2. c1ccc(CCn2cc(COc3ccc(Nc4ncnc5[nH]ccc45)cc3)nn2)cc1
3. Clc1ccccc1Oc1ccc(Nc2ncnc3[nH]ccc23)cc1

1. Permeable
2. Impermeable
3. Permeable

---

- assay procedure: Selectivity index, ratio of IC50 for recombinant human TTBK1 to IC50 for recombinant human TTBK2
readout label: Selectivity Index
Numbers only.

Solved entries:
Clc1ccc(Oc2ccc(Nc3ncnc4[nH]ccc34)cc2)cc1Cl = 0.4
Clc1ccccc1Cn1cc(COc2ccc(Nc3ncnc4[nH]ccc34)cc2)nn1 = 0.13
Nc1nc(Nc2ccc(Oc3cccc(C(F)(F)F)c3)cc2)c2cc[nH]c2n1 = 0.33
c1cc(Nc2ncnc3[nH]ccc23)cc(N2CCOCC2)c1 = 0.82
Clc1cccc(Cn2cc(COc3ccc(Nc4ncnc5[nH]ccc45)cc3)nn2)c1 = 0.24
c1ccc(CCn2cc(COc3ccc(Nc4ncnc5[nH]ccc45)cc3)nn2)cc1 = 0.15
Oc1ccc(Nc2ncnc3[nH]ccc23)cc1 = 0.45
c1nc(Nc2ccc(N3CCOCC3)cc2)c2cc[nH]c2n1 = 0.3

Go through the items and report each one's Selectivity Index.
1. CC(=O)c1ccc(Nc2ncnc3[nH]ccc23)cc1
2. COc1ccc(Nc2ncnc3[nH]ccc23)cc1

0.46
0.39
